system: CAF2-1 C. albican wt; experiment: MIC determination in Candida strain CAF2-1; format: cell-based, Candida albicans; conditions: Candida albicans
Recorded MIC for the following molecules

{"structure-smiles-string": "C[C@@H]1[C@H](O)[C@@H](C)/C=C/C=C/C=C/C=C/C=C/C=C/C=C/[C@H](O[C@@H]2O[C@H](C)[C@@H](O)[C@H](N(CCCN)CCCN)[C@@H]2O)CC2O[C@](O)(C[C@@H](O)C[C@@H](O)[C@H](O)CC[C@@H](O)C[C@@H](O)CC(=O)O[C@H]1C)C[C@H](O)[C@H]2C(=O)NCCCN(C)C", "MIC (µM)": 0.5}
{"structure-smiles-string": "C[C@@H]1[C@H](O)[C@@H](C)/C=C/C=C/C=C/C=C/C=C/C=C/C=C/[C@H](O[C@@H]2O[C@H](C)[C@@H](O)[C@H](N(CCCN)CCCN)[C@@H]2O)C[C@@H]2O[C@](O)(C[C@@H](O)C[C@@H](O)[C@H](O)CC[C@@H](O)C[C@@H](O)CC(=O)O[C@H]1C)C[C@H](O)[C@H]2C(=O)O", "MIC (µM)": 0.1}
{"structure-smiles-string": "C[C@@H]1[C@H](O)[C@@H](C)/C=C/C=C/C=C/C=C/C=C/C=C/C=C/[C@H](O[C@@H]2O[C@H](C)[C@@H](O)[C@H](N(CCCN)CCCN)[C@@H]2O)CC2O[C@](O)(C[C@@H](O)C[C@@H](O)[C@H](O)CC[C@@H](O)C[C@@H](O)CC(=O)O[C@H]1C)C[C@H](O)[C@H]2C(=O)NCCN", "MIC (µM)": 2}
{"structure-smiles-string": "C[C@@H]1[C@H](O)[C@@H](C)/C=C/C=C/C=C/C=C/C=C/C=C/C=C/[C@H](O[C@@H]2O[C@H](C)[C@@H](O)[C@H](N(CCCN)CCCN)[C@@H]2O)CC2O[C@](O)(C[C@@H](O)C[C@@H](O)[C@H](O)CC[C@@H](O)C[C@@H](O)CC(=O)O[C@H]1C)C[C@H](O)[C@H]2C(=O)N1CCN(C)CC1", "MIC (µM)": 0.3}
{"structure-smiles-string": "COC(=O)[C@H]1[C@@H]2C[C@@H](O[C@@H]3O[C@H](C)[C@@H](O)[C@H](N(CCCN)CCCN)[C@@H]3O)/C=C/C=C/C=C/C=C/C=C/C=C/C=C/[C@H](C)[C@@H](O)[C@@H](C)[C@H](C)OC(=O)C[C@H](O)C[C@H](O)CC[C@@H](O)[C@H](O)C[C@H](O)C[C@](O)(C[C@@H]1O)O2", "MIC (µM)": 0.5}

====

Recorded solubility for the following molecules
assay: Solubility assay; type: physicochemical; conditions: PBS buffer, pH 7.2, aqueous buffer, kinetic from dmso stock, DMSO stock added to PBS buffer solution pH 7.2; precipitation point by light scattering at 600 nm; read-out: Solubility in water

{"structure-smiles-string": "C[C@@H]1[C@H](O)[C@@H](C)/C=C/C=C/C=C/C=C/C=C/C=C/C=C/[C@H](O[C@@H]2O[C@H](C)[C@@H](O)[C@H](N(CCCN)CCCN)[C@@H]2O)C[C@@H]2O[C@](O)(C[C@@H](O)C[C@@H](O)[C@H](O)CC[C@@H](O)C[C@@H](O)CC(=O)O[C@H]1C)C[C@H](O)[C@H]2C(=O)O", "unit-spec": "µg/mL", "inequality-operator": "=", "solubility": 12}
{"structure-smiles-string": "COC(=O)[C@H]1[C@@H]2C[C@@H](O[C@@H]3O[C@H](C)[C@@H](O)[C@H](N(CCCN)CCCN)[C@@H]3O)/C=C/C=C/C=C/C=C/C=C/C=C/C=C/[C@H](C)[C@@H](O)[C@@H](C)[C@H](C)OC(=O)C[C@H](O)C[C@H](O)CC[C@@H](O)[C@H](O)C[C@H](O)C[C@](O)(C[C@@H]1O)O2", "unit-spec": "µg/mL", "inequality-operator": "=", "solubility": 22}
{"structure-smiles-string": "C[C@@H]1[C@H](O)[C@@H](C)/C=C/C=C/C=C/C=C/C=C/C=C/C=C/[C@H](O[C@@H]2O[C@H](C)[C@@H](O)[C@H](N(CCCN)CCCN)[C@@H]2O)CC2O[C@](O)(C[C@@H](O)C[C@@H](O)[C@H](O)CC[C@@H](O)C[C@@H](O)CC(=O)O[C@H]1C)C[C@H](O)[C@H]2C(=O)NCCN", "unit-spec": "µg/mL", "inequality-operator": "≤", "solubility": 40}
